System: Erythrocyte
Assay: Hemolytic activity in mouse Erythrocyte assessed as HC10 incubated for 1 hr
Type: ADME, cell-based
MEASUREMENT_KIND: HC10

[
  {
    "SUBSTANCE": "H-LYKRYILRKFKFLKKKLKKK-NH2",
    "SUBJECT_OF_TEST": "Erythrocyte",
    "MEASUREMENT_KIND": "HC10",
    "ENDPOINT_VALUE": "> 640 µg/mL"
  },
  {
    "SUBSTANCE": "H-SYERKINRHFKTLKKNLKKK-NH2",
    "SUBJECT_OF_TEST": "Erythrocyte",
    "MEASUREMENT_KIND": "HC10",
    "ENDPOINT_VALUE": "> 640 µg/mL"
  },
  {
    "SUBSTANCE": "H-WVRKVRRWWKKVKKVVKK-NH2",
    "SUBJECT_OF_TEST": "Erythrocyte",
    "MEASUREMENT_KIND": "HC10",
    "ENDPOINT_VALUE": "80.04 µg/mL"
  }
]

Ask: Which measured HC10 value corresponds to `H-YIRKIRRFFKTLNKNLKK-NH2` ?
Reply: > 640 µg/mL

Ask: Return reported HC10; argument: `H-YIRKIRRFFKKRFKFRKK-NH2`
Reply: > 640 µg/mL

Ask: Requested read-out: HC10. Entry: `H-YIRKINRHFKTLKKNLKK-NH2`
Reply: > 640 µg/mL

Ask: Tell me the measured HC10 of `H-SYEIKINRHFKTLKKNLKKK-NH2` , please.
Reply: > 640 µg/mL

Ask: If you can, please state the reported HC10 value of `H-YIRKIRRFFKKLKKILKK-NH2` .
Reply: 640 µg/mL

Data credit: ChEMBL document CHEMBL4311960
